Taken from PubChem BioAssay AID1159580.

test_method_notes: chemical genetic growth profiling, strain panel (AID 1159580);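 further: tested at 20 µM; growth read once vehicle control cultures reached saturation at 30 °C; 1 = growth at the plate median or of vehicle wells; lower values mean less growth of the strain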
experimental_setup: S. cerevisiae deletion strains, growth OD, locus YDL192W, strain arf1, stronger effect = lower value
Hit rate of the full screen: of about 5,500 compounds, about 2,000 (36%) were called active. Not shown: some 18% with an inconclusive outcome. This is one part of the list.
value_kind: normalized growth

1) Fc1ccc([C@@H]2CCNC[C@H]2COc2ccc3c(c2)OCO3)cc1; 1.01
2) CCC(C)C(=O)c1c(O)c(C)c2oc3c(C)c(O)c(C(=O)C(C)CC)c(O)c3c2c1O (centres undefined); 0.976
3) CC(=O)C1CCC2C3CCC4C[C@H](O)CCC4(C)C3C[C@H](O)C12C (some centres undefined); 1.02
4) CC1OC(O[C@H]2/C=C/C=C/C=C/C=C/C=C/C=C/C=C/[C@H](C)[C@@H](O)[C@@H](C)[C@H](C)OC(=O)CC(O)CC(O)CCC(O)C(O)CC(O)C[C@]3(O)C[C@H](O)C(C(=O)O)C(C2)O3)C(O)[C@H](N)C1O (some centres undefined); 1.01
5) CC(=O)O[C@H]1CC[C@@]2(C)C(C[C@@H](OC(C)=O)[C@]3(C)C2CC[C@@]2(C)[C@H](c4ccoc4)OC(=O)[C@H]4O[C@]423)C1(C)C (some centres undefined); 0.992
6) CC(=O)O[C@@H]1CC2C(C)(C)[C@@H](O)CC[C@]2(C)C2CC[C@@]3(C)[C@H](c4ccoc4)OC(=O)[C@H]4O[C@]43[C@@]21C (some centres undefined); 0.964
7) O=C(O)C1CCCNC1 (centres undefined); 1.03
8) CC1[C@H](C)OC(=O)CC(O)CC(O)CC(O)CCC(O)C(O)C[C@]2(O)CC(O)C(C(=O)O)C(CC(OC3O[C@H](C)[C@@H](O)[C@H](N)[C@@H]3O)/C=C/C=C/C=C/C=C/CC/C=C/C=C/[C@H](C)[C@H]1O)O2 (some centres undefined); 0.133
9) CC(=O)O[C@H]1C[C@@H](OC(C)=O)C(C)(C)C2C[C@@H](OC(C)=O)[C@]3(C)C(CC[C@@]4(C)[C@H](c5ccoc5)OC(=O)[C@H]5O[C@]543)[C@]21C (some centres undefined); 1.01
10) CC(=O)O[C@H]1C[C@@H](OC(C)=O)C(C)(C)C2C[C@@H](O)[C@]3(C)C(CC[C@@]4(C)[C@H](c5ccoc5)OC(=O)[C@H]5O[C@]543)[C@]21C (some centres undefined); 0.977
11) CN1CCC[C@@H]1CCO[C@](C)(c1ccccc1)c1ccc(Cl)cc1; 1.01
12) CC1(C)C(=O)[C@@H]2O[C@@H]2[C@@]2(C)C1C[C@@H](O)[C@]1(C)C2CC[C@@]2(C)[C@H](c3ccoc3)OC(=O)C3OC321 (some centres undefined); 0.988
13) CC(=O)OCC(=O)[C@@]1(O)CCC2C3CCC4=CC(=O)C=CC4(C)C3[C@@H](O)C[C@@]21C (some centres undefined); 1.02
14) CC(=O)O[C@@H]1CC2C(C)(C)[C@H](O)CC[C@]2(C)C2CC[C@@]3(C)[C@H](c4ccoc4)OC(=O)C4OC43[C@@]21C (some centres undefined); 0.999
